Property: inhibition at 10 µM; scope: individual compounds
Biological target: Kv7.1/KCNE1 (Homo sapiens, UniProt P15382+P51787)
Experiment: Two electrode voltage clamp of Kv7.1/KCNE1 currents in Xenopus oocytes
Assay type: cell-based
Conditions: 10 µM; percent change in current amplitude at end of pulse to +40 mV
quantityName: inhibition at 10 µM (%)

[
  {
    "compound": "Cc1cc(Cl)ccc1OC(C)(C)C(=O)NC1C2CC3CC1CC(NS(=O)(=O)N(C)C)(C3)C2 (stereo not drawn) [AC-7]",
    "measValue": 38
  },
  {
    "compound": "CCOC(=O)NC12CC3CC(C1)C(NC(=O)C(C)(C)Oc1ccc(Cl)cc1C)C(C3)C2 (stereo not drawn) [AC-8]",
    "measValue": 74.5
  },
  {
    "compound": "Cc1cc(Cl)ccc1OC(C)(C)C(=O)NC1C2CC3CC1CC(NC(=O)CC(C)C)(C3)C2 (stereo not drawn) [AC-9]",
    "measValue": 78.6
  },
  {
    "compound": "Cc1cc(Cl)ccc1OC(C)(C)C(=O)NC1C2CC3CC1CC(NS(C)(=O)=O)(C3)C2 (stereo not drawn) [AC-2]",
    "measValue": 86.8
  },
  {
    "compound": "Cc1cc(Cl)ccc1OC(C)(C)C(=O)NC1[C@@H]2CC3C[C@H]1CC(N)(C3)C2 (stereo partly drawn) [AC-4]",
    "measValue": 4.2
  },
  {
    "compound": "Cc1cc(Cl)ccc1OC(C)(C)C(=O)NC1C2CC3CC1CC(O)(C3)C2 (stereo not drawn) [AC-5]",
    "measValue": 40.9
  },
  {
    "compound": "CC(C)(Oc1cccc(C(F)(F)F)c1)C(=O)NC1C2CC3CC1CC(NS(C)(=O)=O)(C3)C2 (stereo not drawn) [AC-3]",
    "measValue": 73.7
  },
  {
    "compound": "CC(C)(Oc1ccc(Cl)cc1)C(=O)NC1C2CC3CC1CC(NS(C)(=O)=O)(C3)C2 (stereo not drawn) [AC-1]",
    "measValue": 89.2
  },
  {
    "compound": "Cc1cc(Cl)ccc1OC(C)(C)C(=O)NC1C2CC3CC1CC(C(=O)O)(C3)C2 (stereo not drawn) [AC-6]",
    "measValue": 64.6
  }
]

###

Target: I274A/KCNE1 (Homo sapiens, UniProt P15382+P51787, I274A)
Assay: TEVC, mutant channel I274A/KCNE1 in oocytes
Conditions: Kv7.1 I274A mutant with KCNE1
pIC50: −log10 of the molar value.

[
  {
    "compound": "CC(C)(Oc1ccc(Cl)cc1)C(=O)NC1C2CC3CC1CC(NS(C)(=O)=O)(C3)C2 (stereo not shown) [AC-1]",
    "pIC50": 6.49
  }
]

###

Biological target: I337V/KCNE1 (Homo sapiens, UniProt P15382+P51787, I337V)
Assay: TEVC, mutant channel I337V/KCNE1 in oocytes
Settings: Kv7.1 I337V mutant with KCNE1

[
  {
    "compound": "CC(C)(Oc1ccc(Cl)cc1)C(=O)NC1C2CC3CC1CC(NS(C)(=O)=O)(C3)C2 (stereo not shown) [AC-1]",
    "IC50, µM": 6
  }
]
